Biological target: Delta-type opioid receptor (Homo sapiens)
Sequence (P41143 whole entry): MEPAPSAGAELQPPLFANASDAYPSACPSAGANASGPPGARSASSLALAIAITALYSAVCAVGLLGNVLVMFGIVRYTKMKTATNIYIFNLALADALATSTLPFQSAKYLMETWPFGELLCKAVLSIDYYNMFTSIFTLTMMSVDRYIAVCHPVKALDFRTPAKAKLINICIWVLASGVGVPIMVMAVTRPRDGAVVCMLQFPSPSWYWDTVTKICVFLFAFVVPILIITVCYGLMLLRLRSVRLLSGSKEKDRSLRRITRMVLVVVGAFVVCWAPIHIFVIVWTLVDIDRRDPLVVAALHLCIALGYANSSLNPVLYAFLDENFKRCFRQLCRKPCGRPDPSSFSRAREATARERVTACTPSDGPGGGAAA
Assay: Displacement of [125I]IOXY from human delta opioid receptor expressed in CHO cells coexpressing human recombinant DOR after 2 hrs by liquid scintillation counting
Type: cell-based
Details: cho
pKi: −log10 of the molar value.
value-type: pKi

INSERT INTO assay_data (chemical_structure, target_system, value_type, result) VALUES
  ('Oc1cccc2c1O[C@H]1CC[C@@H]3C[C@]21CCN3CCc1ccccc1', 'Delta-type opioid receptor (Homo sapiens)', 'pKi', '< 5.30');
